- TESTED_SYSTEM: Spike of live SARS-CoV-2 WT virus (SARS-CoV-2, UniProt P0DTC2 14-1273)
- TEST_DESCRIPTION: cell-based or functional assay
ENDPOINT_NAME: Neutralization IC50 (µg/ml), Live Virus WT

// below: answered binders
1. 1249A8 (antibody, V domains shown) VH: QVQLVQSGAEVKKPGASMKVSCKASGFTFTDYYMHWVRQAPRQGLEWMGLINPSGSGTAYAQNFQGRVTLARDTSTSTLYMEMGSLTSDDTAVYYCARMDSSGSYDHWGQGTLVTVSS VL: ETTLTQSPGTLSLSPGDRATLSCRASQTIRISYLAWYQQKPGQAPRLLVYGPSIRATGIPDRFSARGSGTDFTLTISRLEPEDFAVYYCQHYGSSPPRYTFGQGTKLEIK ... 1.77 µg/mL
2. 1242G6 (antibody, V domains shown, Recombinant human IgG1) VH: QVQLVQSGGGVVQPGTSVRLSCAASGFTFSDHGMHWVRQAPGKGLEWVAVISFEGRNKFFADSVKGRSTISRDNSKNTVSMQVDNVRPEDTAVYYCAREHFDGSGSDYIGTRFFDYWGRGALVTVSS VL: DIQLTQSPSFLSASVGDRVTITCRASQGISHYLTWYQQKPGKAPKLLIYRTSTLQSGVPSRFSGSGSGTVFTLTISSLQPEDLATYYCQHLDNFPTITFGQGTRLDLK ... > 50 µg/mL
3. 1246C2 (antibody, V domains shown) VH: QVQLVQSGGGLVKPGGSLRLSCAASGFTFKTHNMIWVRQAPGKVLEWVSSISGSSSYRYYGDSMKGRLTISRDNAKNSLYLEMNSLRAEDTAVYYCARDKGVGPTMVWYFDLWGRGTLVTVSS VL: EIVLTQSPATLSLSPGDRATLSCRASQSLSISLAWYQQKPGQAPRLLIYDASIRATGVPPRFSGSGSGTDFTLTISSLEPEDFAVYYCQQWSGWPPRLTFGGGTKVEIK ... > 50 µg/mL
4. 1242C6 (antibody, V domains shown, Recombinant human IgG1) VH: EVQLVQSGAEVKKPGASVKVSCKASGFTFSDYYMHWVRQAPRQGLEWMGLINPSGSGTAYAQNFQGRVTLTRDTSTSTLYMEMGSLTSDDTAVYYCARMDSSGSYDHWGQGTLVTVSS VL: DIVMTQSPGTLSLSPGDRATLSCRASQTIRISYLAWYQQKPGQAPRLLVYGPSIRATGIPDRFSASGSGTDFTLTISRLEPEDFAVYYCQHYGSSPPRYTFGQGTKLEIK ... 5.68 µg/mL

Asked: GET /values?readout=Neutralization IC50 (µg/ml), Live Virus WT&item= 1250E10 (antibody, V domains shown, Recombinant human IgG1) VH: EVQLVQSGAEVKKPGASVKFSCKASGFRVDGSYMHWVRQAPRGGLEWMGLINPSGSGTAYAQIFQGRVTLTRDTSTSTLYMELGSLGSEDTAMYYCARMDRSGSYDLWGQGTLVIVSS VL: DIVLTQSPGNLSLSPGERATLSCRASESIRSAYIAWYQQKPGQAPRLLMRGASVRAAGIPDRFSGSGSGTDYALTISRLEPEDFAVYYCQHFASSPPRYTFGQGTKLEIK
Given back: > 50 µg/mL

Asked: GET /values?readout=Neutralization IC50 (µg/ml), Live Virus WT&item= 1242F4 (antibody, V domains shown, Recombinant human IgG1) VH: EVQLVQSGAEVKKPGTSVKVSCKASGNTVADYYMHWVRQAPRQGLEWVGLINPSGSGTAYAQNFQGRVTLTRDTSTSTLYMELGSLGSEDTAIYYCARMDSSGTYDVWGQGTLVTVSS VL: EIVLTQSPGTLSLSPGERATLSCRASQSIRSGYLAWYQQKPGQAPRLLIRGASVKATGIPDRFSGSGSGTDFTLTISRLEPEDFVVYYCQHFASSPPRYTFGQGTKLEIK
Given back: 36.5 µg/mL
